target: hKV1.2 (Homo sapiens); construct: GFP; expressed in transfected cells; host or cells: CHO cells (ATCC), transient transfection with Lipofectamine 2000; assay: Whole-cell patch-clamp, hKV1.2 in transiently transfected CHO cells; format: cell-based; conditions: 0.01, 0.1, 1 and 10 µM SA8; linear least squares fit Y = 1 + slope × [toxin]; n = 4; room temperature (20–24 °C); ECS pH 7.35, 0.1 mg/mL BSA; CHO cells
Sequence (P16389 whole entry): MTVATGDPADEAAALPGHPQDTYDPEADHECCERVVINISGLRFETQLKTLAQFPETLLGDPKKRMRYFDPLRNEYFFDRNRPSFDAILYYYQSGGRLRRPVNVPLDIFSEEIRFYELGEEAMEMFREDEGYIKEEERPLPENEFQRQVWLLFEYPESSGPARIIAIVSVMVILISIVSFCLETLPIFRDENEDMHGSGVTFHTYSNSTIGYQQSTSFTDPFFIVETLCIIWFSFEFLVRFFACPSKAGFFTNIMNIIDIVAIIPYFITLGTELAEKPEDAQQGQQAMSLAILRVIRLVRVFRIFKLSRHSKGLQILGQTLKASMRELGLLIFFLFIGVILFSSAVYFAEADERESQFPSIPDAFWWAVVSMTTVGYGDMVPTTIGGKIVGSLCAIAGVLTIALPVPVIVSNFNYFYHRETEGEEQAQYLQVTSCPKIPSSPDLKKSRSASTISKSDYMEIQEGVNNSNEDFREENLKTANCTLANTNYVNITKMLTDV
Bridge positions count the residues as written; N and C are the ends. Ends that are not written are not given here.
property-label: IC50 (µM)
Numeric answer only, unit µM assumed.

Quick note, IC50 for GYGKGRPGCYNHYDESICGGVIKDEHCKAGRGSRMGKFALKNCQFQCGLC (disulfide 9-47, 18-50, 27-43) [SA8] landed at 40.8
